- System: OVCAR-3 ovarian
- Procedure summary: NCI-60 one-dose screen, 48 h
- Measurement conditions: 10 µM unless noted
About 83,000 compounds went through this panel and 20% of them were active in at least one assay; those are over-represented in the sample as a whole. Active and inactive are the calls of the source. The calls were made as follows: active = growth percent below 10; inactive = the rest.
Choose the fitting class; nothing outside label 1 (active), label 0 (inactive) is accepted.

Past entries and their recorded results:
- Molecule: "COc1ccc(/C=C(\\C#N)c2cc3ccccc3n2S(C)(=O)=O)cc1"
  Class label: "label 0"
- Molecule: "C#CCC(C)(O)/C=C/C1=C(C)CCCC1(C)C (stereo not drawn)"
  Class label: "label 0"
- Molecule: "Cn1cc(-c2csc(-c3cn(CCCN4CCCCC4)c4ccc(Br)cc34)n2)c2cccnc21"
  Class label: "label 1"
- Molecule: "CC(=O)OC[C@]12CC[C@@H](/C(C)=N/O)[C@@H]1[C@H]1CC[C@@H]3[C@@]4(C)CCCNC(C)(C)[C@@H]4CC[C@@]3(C)[C@]1(C)CC2"
  Class label: "label 0"
- Molecule: "O=C1/C(=C\\C(Cl)=C/c2ccc([N+](=O)[O-])cc2)SC(=S)N1CCc1ccc(O)cc1"
  Class label: "label 1"

Continue with the next molecule.
Q: // param item: Nc1c(Cl)cc(N=Nc2ccccc2)cc1Cl ; yields the recorded call
A: label 0
